# assay system: CD45 (Homo sapiens, UniProt P08575)
# Sequence (P08575 26-1306, species assumed): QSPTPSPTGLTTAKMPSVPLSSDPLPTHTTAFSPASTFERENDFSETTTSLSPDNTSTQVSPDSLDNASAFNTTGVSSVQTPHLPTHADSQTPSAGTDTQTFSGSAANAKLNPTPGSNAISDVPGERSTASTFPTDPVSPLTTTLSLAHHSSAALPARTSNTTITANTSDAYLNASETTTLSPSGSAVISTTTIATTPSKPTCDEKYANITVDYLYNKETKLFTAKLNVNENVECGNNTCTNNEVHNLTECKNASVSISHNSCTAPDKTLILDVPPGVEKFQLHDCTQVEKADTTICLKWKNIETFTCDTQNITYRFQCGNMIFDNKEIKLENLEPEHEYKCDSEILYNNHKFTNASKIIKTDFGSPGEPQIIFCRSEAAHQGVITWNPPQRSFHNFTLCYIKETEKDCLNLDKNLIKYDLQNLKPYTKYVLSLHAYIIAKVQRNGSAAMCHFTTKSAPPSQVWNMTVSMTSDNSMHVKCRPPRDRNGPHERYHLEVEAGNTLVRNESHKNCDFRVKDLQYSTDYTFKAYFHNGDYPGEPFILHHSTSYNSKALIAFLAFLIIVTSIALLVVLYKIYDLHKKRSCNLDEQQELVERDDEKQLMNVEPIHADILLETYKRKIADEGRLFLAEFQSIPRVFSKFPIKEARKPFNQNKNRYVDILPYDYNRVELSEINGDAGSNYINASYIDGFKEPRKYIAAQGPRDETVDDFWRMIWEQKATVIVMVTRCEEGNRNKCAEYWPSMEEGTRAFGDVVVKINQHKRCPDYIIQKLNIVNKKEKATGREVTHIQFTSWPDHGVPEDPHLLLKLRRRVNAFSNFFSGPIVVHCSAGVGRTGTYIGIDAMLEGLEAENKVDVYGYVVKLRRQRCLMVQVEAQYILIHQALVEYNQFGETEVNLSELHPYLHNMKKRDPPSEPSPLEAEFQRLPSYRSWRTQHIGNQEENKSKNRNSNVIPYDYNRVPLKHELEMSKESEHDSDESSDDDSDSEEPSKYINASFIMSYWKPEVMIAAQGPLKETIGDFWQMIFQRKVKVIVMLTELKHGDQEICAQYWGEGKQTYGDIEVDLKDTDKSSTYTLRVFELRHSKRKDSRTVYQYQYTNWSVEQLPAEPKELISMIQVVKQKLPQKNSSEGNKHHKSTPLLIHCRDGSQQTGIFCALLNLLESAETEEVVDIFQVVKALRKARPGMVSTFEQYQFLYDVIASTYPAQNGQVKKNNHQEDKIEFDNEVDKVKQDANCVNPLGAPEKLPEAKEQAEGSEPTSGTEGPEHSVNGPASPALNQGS
# assay name: PTP inhibitory activity assay, CD45
# Type: biochemical
pIC50: −log10 of the molar value.
recorded metric: pIC50

1) CC1=CC2(C)Oc3c(-c4ccccc4)c[nH]c(=O)c3C2C1C (single isomer, unassigned; (+)) [(+)-1]: < 4.07

====

# assay system: TCPTP (Homo sapiens)
# Sequence (P17706 whole entry, species assumed): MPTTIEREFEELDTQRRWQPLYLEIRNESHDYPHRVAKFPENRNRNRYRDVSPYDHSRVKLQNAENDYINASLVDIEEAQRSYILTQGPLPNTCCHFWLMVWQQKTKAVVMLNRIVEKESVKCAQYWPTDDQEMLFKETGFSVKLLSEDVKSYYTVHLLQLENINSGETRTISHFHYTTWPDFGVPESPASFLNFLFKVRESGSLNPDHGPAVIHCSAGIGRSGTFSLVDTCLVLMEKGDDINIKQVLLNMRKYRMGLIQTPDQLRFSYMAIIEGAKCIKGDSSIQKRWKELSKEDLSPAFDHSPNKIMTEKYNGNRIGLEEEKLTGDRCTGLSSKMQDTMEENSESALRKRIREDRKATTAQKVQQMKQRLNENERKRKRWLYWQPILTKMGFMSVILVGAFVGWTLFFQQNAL
recorded metric: IC50 (µM)

1. CC1=CC2(C)Oc3c(-c4ccccc4)c[nH]c(=O)c3C2C1C (single isomer, unassigned; (-)) [(−)-1]: 42.6

====

# assay system: PTP1B (Homo sapiens, UniProt P18031)
# Sequence (P18031 1-435): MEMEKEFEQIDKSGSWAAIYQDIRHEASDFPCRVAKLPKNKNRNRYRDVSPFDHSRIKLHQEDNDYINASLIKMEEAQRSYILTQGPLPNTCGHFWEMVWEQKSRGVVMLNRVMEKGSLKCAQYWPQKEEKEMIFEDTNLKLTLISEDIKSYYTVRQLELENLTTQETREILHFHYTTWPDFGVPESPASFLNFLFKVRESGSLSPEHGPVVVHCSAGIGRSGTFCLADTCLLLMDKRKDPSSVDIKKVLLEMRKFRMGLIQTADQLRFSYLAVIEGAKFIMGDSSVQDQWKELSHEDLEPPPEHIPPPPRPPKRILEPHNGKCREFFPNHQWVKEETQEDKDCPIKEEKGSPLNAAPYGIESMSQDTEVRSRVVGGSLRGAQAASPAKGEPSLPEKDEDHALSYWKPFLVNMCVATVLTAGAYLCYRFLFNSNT
pIC50: −log10 of the molar value.
recorded metric: pIC50

1) CC1=CC2(C)Oc3c(-c4ccccc4)c[nH]c(=O)c3C2C1C (single isomer, unassigned; (-)) [(−)-1]: 5.27
